Listed here are molecules together with their documented T/C.
# System: P388 leukemia ip, CD2F1 mice, survival T/C
# Experimental details: NCI In Vivo Anticancer Drug Screen. Data for tumor model P388 Leukemia (intraperitoneal) in CD2F1 (CDF1) mice
# Cond: endpoint: median survival time; dose: 50.0 mg/kg/injection; schedule: Q01DX005 (ip); vehicle: saline with Tween-80; higher = longer survival
Toxic doses and inconclusive results are not listed.
Observation type: T/C

INSERT INTO assay_data (molecule, meas_value) VALUES
  ('COc1ccccc1/C=C/C1=C(C)CCC(c2ccccc2OC)C1C (stereo not drawn)', '90 % of control'),
  ('CC(=O)ONC(=O)CSc1nn2cc(-c3ccccc3)nc2s1', '103 % of control'),
  ('COC(=O)C1=COC(C)C2CN3CCc4c([nH]c5ccccc45)C3CC12 (stereo not drawn)', '106 % of control'),
  ('Nc1cc(-c2ccc(Cl)cc2)nn1-c1nnc(-c2ccccc2)c(-c2ccccc2)n1', '93 % of control'),
  ('O=C(CCN1CCOCC1)Nc1ccc(F)cc1F', '99 % of control'),
  ('CCOC(=O)Nc1c(CCO)n[nH]c1C', '108 % of control'),
  ('O=C1CCCCCCCC(=O)Nc2ccc3nc4ccccc4c(c3c2)SCCCCCCCCCCCCSc2c3ccccc3nc3ccc(cc23)N1', '105 % of control'),
  ('O=C(NC1CCCCC1C1CCC(Cl)CC1)c1ccccc1 (stereo not drawn)', '89 % of control'),
  ('N#Cc1c(NC(=O)C(Cl)(Cl)Cl)sc2c1CCCC2', '105 % of control'),
  ('O=c1[nH]c2ccccc2nc1N=Nc1ccccc1', '96 % of control'),
  ('O=C1c2cc([N+](=O)[O-])cc3cc([N+](=O)[O-])cc(c23)C(=O)N1CCCNCCNCCCN1C(=O)c2cc([N+](=O)[O-])cc3cc([N+](=O)[O-])cc(c23)C1=O', '100 % of control'),
  ('c1ccc(CC2NCCc3c2[nH]c2ccccc32)cc1 (stereo not drawn)', '100 % of control'),
  ('CCN(CC)C(=O)c1c(C(=O)OC)c(C)n(NC(N)=O)c1C', '105 % of control'),
  ('Cc1c(-c2ccncc2)nc2ccccc2c1C(=O)O', '100 % of control'),
  ('CNC(=O)OCc1c(COC(=O)NC)c2n(c1C)CS(=O)C2 (stereo not drawn)', '113 % of control'),
  ('CCC(C)C(NC(=O)c1ccccc1)C(=O)O (stereo not drawn)', '90 % of control'),
  ('CCOC(=O)c1cc(-c2ccccc2)c(=O)c(OC)nc1-c1ccccc1', '118 % of control'),
  ('CC(O)CN1C(=O)c2cccc3cc([N+](=O)[O-])cc(c23)C1=O (stereo not drawn)', '96 % of control'),
  ('CN(C)c1ccnc2c1cnn2C1OC(CO)C(O)C1O (stereo not drawn)', '108 % of control'),
  ('COC(=O)C1=C(C)NC(C)=C(C(=O)OC)C1c1ccc(Cl)c([N+](=O)[O-])c1', '99 % of control'),
  ('CC(=O)Nc1ccc2cc(-c3ccc(Cl)cc3)c3nnnn3c2n1', '96 % of control'),
  ('CC(C)(C)OC(=O)NCCCCC(NC(=O)OCc1ccccc1)C(=O)ON1C(=O)CCC1=O (stereo not drawn)', '101 % of control'),
  ('OCCN(CCO)Cc1cccc2ccccc12', '94 % of control');
